Target: human OATP1B1 (Homo sapiens, UniProt Q9Y6L6)
Sequence (Q9Y6L6 1-691): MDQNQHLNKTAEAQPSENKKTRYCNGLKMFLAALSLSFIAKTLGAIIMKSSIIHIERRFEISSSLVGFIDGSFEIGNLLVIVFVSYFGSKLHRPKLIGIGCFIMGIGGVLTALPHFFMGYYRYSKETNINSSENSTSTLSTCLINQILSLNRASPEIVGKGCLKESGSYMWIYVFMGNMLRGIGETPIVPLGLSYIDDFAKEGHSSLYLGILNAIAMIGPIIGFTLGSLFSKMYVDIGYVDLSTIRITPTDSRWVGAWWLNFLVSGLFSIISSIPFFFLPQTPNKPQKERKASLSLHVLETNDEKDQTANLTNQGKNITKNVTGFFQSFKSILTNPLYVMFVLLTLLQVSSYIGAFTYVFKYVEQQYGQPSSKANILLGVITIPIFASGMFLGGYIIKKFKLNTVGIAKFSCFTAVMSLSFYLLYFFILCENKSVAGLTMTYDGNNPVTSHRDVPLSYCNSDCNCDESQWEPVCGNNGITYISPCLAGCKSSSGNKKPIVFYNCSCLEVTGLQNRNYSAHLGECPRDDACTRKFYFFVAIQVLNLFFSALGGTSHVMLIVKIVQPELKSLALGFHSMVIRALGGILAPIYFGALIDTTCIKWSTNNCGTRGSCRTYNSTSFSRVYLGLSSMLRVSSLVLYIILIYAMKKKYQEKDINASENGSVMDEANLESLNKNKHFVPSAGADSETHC
Assay: OATP1B1 inhibition assay (HEK293 cells over-expressing human OATP1B1, substrate estradiol 17-β-D-glucuronide)
Conditions: 30 min pre-incubation, 10 min coincubation with estradiol 17-β-D-glucuronide
pIC50: −log10 of the molar value.
observation.type: pIC50

# input For the molecule C[C@H]1c2c(nn(-c3ccc(F)c(C4CC4)c3)c2-n2ccn(-c3ccc4c(cnn4C)c3F)c2=O)CCN1C(=O)c1cc2cc([C@@H]3CCOC(C)(C)C3)ccn2c1C1(c2noc(=O)[nH]2)CC1 (single isomer, unassigned) [Compound 73] , what pIC50 is on record?
# output < 6.00

Let us move to another entry and its pIC50.
# input For the molecule C[C@H]1c2c(nn(-c3ccc(F)c(C4CC4)c3)c2-n2ccn(-c3ccc4c(cnn4C)c3F)c2=O)CCN1C(=O)c1cn2cc([C@H]3CCOC(C)(C)C3)cc(F)c2c1C1(c2noc(=O)[nH]2)CC1 (single isomer, unassigned) [Compound 91] , what pIC50 is on record?
# output < 6.00

---

Each entry below carries its reported EC50.
molecular target: (Homo sapiens, UniProt P43220); experiment: h-GLP-1 activity assay (cAMP HTRF, HEK293 cells with stable expression of human GLP-1); details: relative EC50, 10 nM human GLP-1 set as 100% response, 30 min at 37° C.
Sequence (P43220 24-463): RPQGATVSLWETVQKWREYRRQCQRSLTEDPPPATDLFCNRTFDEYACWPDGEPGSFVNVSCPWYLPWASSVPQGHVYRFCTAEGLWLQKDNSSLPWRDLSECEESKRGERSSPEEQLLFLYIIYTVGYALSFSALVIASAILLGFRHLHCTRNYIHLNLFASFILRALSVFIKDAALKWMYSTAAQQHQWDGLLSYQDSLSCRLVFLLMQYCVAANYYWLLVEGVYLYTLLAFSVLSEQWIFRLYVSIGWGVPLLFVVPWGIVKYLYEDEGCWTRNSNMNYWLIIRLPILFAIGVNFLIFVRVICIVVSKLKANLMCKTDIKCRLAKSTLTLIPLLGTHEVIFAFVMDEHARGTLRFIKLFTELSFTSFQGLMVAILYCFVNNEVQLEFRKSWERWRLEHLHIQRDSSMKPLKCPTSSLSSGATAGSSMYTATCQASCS

# input Request - read-out EC50 | tested on (Homo sapiens, UniProt P43220) | compound Cc1cc(-n2nc3c(c2-n2ccn(-c4ccc5c(cnn5C)c4F)c2=O)CN(C(=O)c2cc4cc(C5CCOC(C)(C)C5)ccc4n2Cc2nnc(O)s2)CC3)cc(C)c1F (racemic)
# output > 100 nM

# input Request - read-out EC50 | tested on (Homo sapiens, UniProt P43220) | compound Cc1cc(-c2nn3c(c2-n2ccn(-c4ccc5c(cnn5C)c4F)c2=O)[C@H](C)N(C(=O)c2cc4cc([C@@H]5CCOC(C)(C)C5)ccc4n2C2(c4noc(=O)[nH]4)CC2)CC3)ccc1F (single isomer, unassigned)
# output < 20 nM

# input Request - read-out EC50 | tested on (Homo sapiens, UniProt P43220) | compound C[C@H]1c2c(nn(-c3ccc(F)c(C4CC4)c3)c2-n2ccn(-c3ccc4c(cnn4C)c3F)c2=O)CCN1C(=O)c1nc2cc([C@H]3CCOC(C)(C)C3)ccn2c1C1(c2noc(=O)[nH]2)CC1 (single isomer, unassigned)
# output > 100 nM

# input Request - read-out EC50 | tested on (Homo sapiens, UniProt P43220) | compound COCC12CCC(n3ccn(-c4c(-c5ccc(F)cc5)nn5c4[C@H](C)N(C(=O)c4cc6cc([C@@H]7CCOC(C)(C)C7)ccc6n4[C@@]4(c6noc(=O)[nH]6)C[C@@H]4C)CC5)c3=O)(CC1)CC2 (single isomer, unassigned)
# output 20 to 100 nM
